# TESTED TARGET: Human SSAO/VAP-1 (Homo sapiens, UniProt Q16853)
# Sequence (Q16853 1-763): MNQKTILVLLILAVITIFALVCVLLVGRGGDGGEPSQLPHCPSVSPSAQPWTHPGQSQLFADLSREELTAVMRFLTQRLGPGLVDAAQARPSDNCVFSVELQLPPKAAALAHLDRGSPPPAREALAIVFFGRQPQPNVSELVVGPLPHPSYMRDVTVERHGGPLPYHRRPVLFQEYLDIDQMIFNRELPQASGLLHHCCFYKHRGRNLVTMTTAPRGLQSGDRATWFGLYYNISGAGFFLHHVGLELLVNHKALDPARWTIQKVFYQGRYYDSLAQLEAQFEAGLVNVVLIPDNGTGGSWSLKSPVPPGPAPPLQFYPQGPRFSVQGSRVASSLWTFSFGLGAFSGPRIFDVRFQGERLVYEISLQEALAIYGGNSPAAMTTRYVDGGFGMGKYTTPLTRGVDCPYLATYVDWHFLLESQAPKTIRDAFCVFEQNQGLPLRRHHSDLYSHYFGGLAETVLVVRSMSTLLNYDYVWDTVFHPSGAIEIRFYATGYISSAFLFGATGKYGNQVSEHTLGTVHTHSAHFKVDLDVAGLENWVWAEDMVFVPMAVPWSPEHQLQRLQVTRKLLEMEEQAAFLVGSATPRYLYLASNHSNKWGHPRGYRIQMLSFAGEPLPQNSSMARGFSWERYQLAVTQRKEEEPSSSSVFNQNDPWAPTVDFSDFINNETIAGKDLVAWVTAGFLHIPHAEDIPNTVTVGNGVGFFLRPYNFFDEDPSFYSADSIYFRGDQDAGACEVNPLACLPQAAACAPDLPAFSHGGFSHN
# ASSAY PROTOCOL: Fluorimetric detection of SSAO-mediated H2O2 formation (Amplex Red), human recombinant VAP-1
# Format: biochemical
# RUN PARAMETERS: production of hydrogen peroxide; compounds at 1 mM
QUANTITY MEASURED: Human SSAO/VAP-1 activity % relative to benzylamine (%)

| COMPOUND | ASSAY VALUE |
| --- | --- |
| NCc1cccc(CNC(=O)c2ccc(Br)cc2)c1 [Example 12] | 16 |
| CCC(=O)NCc1cccc(CN)c1 [Example 3, N-(3-(aminomethyl)benzyl)propionamide] | 4 |
| NCc1cccc(CNC(=O)c2ccc(O)cc2)c1 [Example 10] | 5 |
| NCc1cccc(CNC(=O)CI)c1 [Example 4] | 38 |
| NCc1ccccc1 [Example 1, benzylamine, reference compound] | 100 |
| CC(=O)NCc1cccc(CN)c1 [Example 2, N-(3-(aminomethyl)benzyl)acetamide] | 3 |
| NCc1cccc(CNC(=O)c2ccccc2)c1 [Example 6, N-(3-(aminomethyl)benzyl)benzamide] | 17 |
| NCc1ccc(C(=O)NCc2cccc(CN)c2)cc1 [Example 11] | 17 |
| Cc1ccc(S(=O)(=O)NCc2cccc(CN)c2)cc1 [Example 8] | 12 |
| C=CCOC(=O)NCc1cccc(CN)c1 [Example 5, allyl 3-(aminomethyl)benzylcarbamate] | 21 |
| CC(=O)N[C@H](C(=O)NCc1cccc(CN)c1)c1ccccc1 [Example 7] | 2 |

* * *

Listed here are compounds together with their documented Mouse SSAO/VAP-1 activity % relative to benzylamine.
# TESTED TARGET: Mouse SSAO/VAP-1 (Mus musculus, UniProt O70423)
# Construct: from tissue; host or cells: internal adipose tissue membranes of Swiss mice
# Sequence (O70423 whole entry): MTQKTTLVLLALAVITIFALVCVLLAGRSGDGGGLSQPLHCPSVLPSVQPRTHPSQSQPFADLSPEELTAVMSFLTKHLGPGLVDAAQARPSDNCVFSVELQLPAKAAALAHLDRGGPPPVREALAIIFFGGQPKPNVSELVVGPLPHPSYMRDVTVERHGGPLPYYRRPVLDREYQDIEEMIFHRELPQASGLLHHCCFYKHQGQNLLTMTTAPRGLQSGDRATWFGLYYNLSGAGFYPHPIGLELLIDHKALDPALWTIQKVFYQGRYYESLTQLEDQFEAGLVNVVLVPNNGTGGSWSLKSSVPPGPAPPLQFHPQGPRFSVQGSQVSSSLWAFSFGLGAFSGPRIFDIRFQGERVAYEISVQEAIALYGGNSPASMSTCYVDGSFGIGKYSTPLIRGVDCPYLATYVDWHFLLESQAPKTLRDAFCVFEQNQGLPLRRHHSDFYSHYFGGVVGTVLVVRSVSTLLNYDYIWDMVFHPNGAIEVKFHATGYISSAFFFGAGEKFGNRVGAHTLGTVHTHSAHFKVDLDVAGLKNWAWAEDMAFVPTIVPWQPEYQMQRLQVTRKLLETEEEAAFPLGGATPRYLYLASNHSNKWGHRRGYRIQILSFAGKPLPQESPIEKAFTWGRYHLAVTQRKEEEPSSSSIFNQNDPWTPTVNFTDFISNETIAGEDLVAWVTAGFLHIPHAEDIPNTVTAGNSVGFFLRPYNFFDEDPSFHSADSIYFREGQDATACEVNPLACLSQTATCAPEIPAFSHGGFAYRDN
# ASSAY PROTOCOL: Fluorimetric detection of SSAO-mediated H2O2 formation (Amplex Red), mouse adipose tissue membranes
# Type: biochemical
# RUN PARAMETERS: production of hydrogen peroxide; compounds at 100 μM
QUANTITY MEASURED: Mouse SSAO/VAP-1 activity % relative to benzylamine (%)

| COMPOUND | ASSAY VALUE |
| --- | --- |
| C=CCOC(=O)NCc1cccc(CN)c1 [Example 5, allyl 3-(aminomethyl)benzylcarbamate] | 49 |
| CC(=O)NCc1cccc(CN)c1 [Example 2, N-(3-(aminomethyl)benzyl)acetamide] | 16 |
| CCC(=O)NCc1cccc(CN)c1 [Example 3, N-(3-(aminomethyl)benzyl)propionamide] | 27 |
| CC(=O)N[C@H](C(=O)NCc1cccc(CN)c1)c1ccccc1 | 13 |
| NCc1cccc(CNC(=O)CI)c1 | 61 |
| NCc1ccc(C(=O)NCc2cccc(CN)c2)cc1 | 12 |
| NCc1ccccc1 [Example 1, benzylamine, reference compound] | 100 |
| NCc1cccc(CNC(=O)c2ccc(O)cc2)c1 | 26 |
| Cc1ccc(S(=O)(=O)NCc2cccc(CN)c2)cc1 | 14 |
| NCc1cccc(CNC(=O)c2ccc(Br)cc2)c1 | 46 |
| NCc1cccc(CNC(=O)c2ccccc2)c1 [Example 6, N-(3-(aminomethyl)benzyl)benzamide] | 58 |
